- study.target: F508delCFTR cell surface expression in CFBE41o-F508delCFTR-HRP cells (Homo sapiens, UniProt P13569, DEL508-508)
- Construct: fused on or other part: Horseradish peroxidase (HRP) reporter inserted in the fourth exofacial (extracellular) loop of CFTR; expression is doxycycline-inducible
- Sequence (P13569 with tags, fused parts or gaps DEL508-508 limits assumed): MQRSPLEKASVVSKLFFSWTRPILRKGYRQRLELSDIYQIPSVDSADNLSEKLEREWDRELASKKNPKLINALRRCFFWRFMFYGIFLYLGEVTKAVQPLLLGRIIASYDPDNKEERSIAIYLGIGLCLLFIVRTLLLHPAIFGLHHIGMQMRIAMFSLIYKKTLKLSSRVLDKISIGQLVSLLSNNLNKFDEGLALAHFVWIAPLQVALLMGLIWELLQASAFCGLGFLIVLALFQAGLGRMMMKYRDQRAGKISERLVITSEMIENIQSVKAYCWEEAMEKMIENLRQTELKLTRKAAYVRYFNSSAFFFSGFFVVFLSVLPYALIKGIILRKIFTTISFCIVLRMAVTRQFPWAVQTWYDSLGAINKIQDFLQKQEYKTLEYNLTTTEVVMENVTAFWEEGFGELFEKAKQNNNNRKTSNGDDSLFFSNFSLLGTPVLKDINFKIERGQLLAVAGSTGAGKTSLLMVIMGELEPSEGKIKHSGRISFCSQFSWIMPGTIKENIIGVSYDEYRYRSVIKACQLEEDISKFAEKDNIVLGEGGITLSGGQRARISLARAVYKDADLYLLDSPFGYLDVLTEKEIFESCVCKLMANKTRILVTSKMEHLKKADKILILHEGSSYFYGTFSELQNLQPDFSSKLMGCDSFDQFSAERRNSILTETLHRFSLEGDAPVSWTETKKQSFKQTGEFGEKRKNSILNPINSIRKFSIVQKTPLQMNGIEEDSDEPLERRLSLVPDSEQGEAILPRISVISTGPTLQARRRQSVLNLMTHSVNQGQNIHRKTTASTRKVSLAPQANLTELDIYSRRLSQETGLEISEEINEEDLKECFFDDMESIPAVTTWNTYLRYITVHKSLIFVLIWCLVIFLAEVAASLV
- Sequence (P13569 919-1480 limits assumed, stated change not applied): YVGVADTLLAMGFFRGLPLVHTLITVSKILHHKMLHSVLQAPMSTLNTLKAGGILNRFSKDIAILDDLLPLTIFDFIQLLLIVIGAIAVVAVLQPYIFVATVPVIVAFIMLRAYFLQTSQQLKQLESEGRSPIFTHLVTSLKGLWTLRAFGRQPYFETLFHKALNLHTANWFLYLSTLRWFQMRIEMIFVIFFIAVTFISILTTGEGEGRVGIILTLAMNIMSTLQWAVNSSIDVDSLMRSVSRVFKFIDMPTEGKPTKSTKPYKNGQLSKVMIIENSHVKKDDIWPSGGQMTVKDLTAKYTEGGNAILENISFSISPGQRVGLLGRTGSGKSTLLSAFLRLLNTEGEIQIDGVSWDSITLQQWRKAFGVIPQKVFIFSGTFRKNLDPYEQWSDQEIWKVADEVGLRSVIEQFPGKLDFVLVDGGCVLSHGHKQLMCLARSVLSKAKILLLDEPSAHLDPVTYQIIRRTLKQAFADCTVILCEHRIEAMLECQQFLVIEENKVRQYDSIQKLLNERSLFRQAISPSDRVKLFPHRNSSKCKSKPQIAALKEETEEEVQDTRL
- run.description: Cell Surface Expression-Horse Radish Peroxidase (CSE-HRP) Assay
- Assay type: cell-based
- test.context: maximum at any tested concentration, normalized to on-plate positive control (3 μM)
endpoint: Maximum % activity (%)

COC(=O)c1ccc([C@H]2C[C@@H](NC(=O)[C@@]3(C)COc4cc5c(cc43)OC(F)(F)O5)c3ccc(OC)cc3O2)nc1 [Example 89E]    116
C[C@]1(C(=O)N[C@@H]2C[C@H](c3ccc(C(=O)O)cn3)Oc3cc(OC(F)(F)F)ccc32)COc2cc3c(cc21)OC(F)(F)O3    118
COc1ccc2c(c1)O[C@@H](c1ccc(C(=O)N3CCC(F)(F)CC3)cn1)C[C@H]2NC(=O)[C@@]1(C)COc2cc3c(cc21)OC(F)(F)O3    116

###

- study.target: F508delCFTR cell surface expression in CFBE41o-F508delCFTR-HRP cells (Homo sapiens, UniProt P13569, DEL508-508)
- Construct: fused on or other part: Horseradish peroxidase (HRP) reporter inserted in the fourth exofacial (extracellular) loop of CFTR; expression is doxycycline-inducible
- run.description: Cell Surface Expression-Horse Radish Peroxidase (CSE-HRP) Assay
- Assay type: cell-based
- test.context: maximum at any tested concentration, normalized to on-plate positive control (3 μM)
endpoint: Maximum % activity (%)

Completed entries (count: 8):
C[C@]1(C(=O)Nc2cc(Br)cn(-c3ccc(C(=O)O)cc3)c2=O)COc2cc3c(cc21)OC(F)(F)O3 [Example 97]    148
COc1ccc2c(c1)O[C@@H]([C@H]1CC[C@H](C(=O)N3C[C@H](O)[C@@H](O)C3)CC1)C[C@H]2NC(=O)[C@@]1(C)COc2cc3c(cc21)OC(F)(F)O3 [Example 281]    154
C[C@]1(C(=O)Nc2cccc(N3CC[C@H](O)C3)n2)COc2cc3c(cc21)OC(F)(F)O3 [Example 88]    113
CC1(C(=O)Nc2cccc(-c3ccccc3)c2)COc2cc3c(cc21)OC(F)(F)O3 (stereo not shown) [Example 54]    151
Cc1ccc(NC(=O)[C@@]2(C)COc3cc4c(cc32)OC(F)(F)O4)nc1-c1ccc(C(=O)O)cc1 [Example 83]    172
COc1ccc2c(c1)O[C@@H]([C@H]1CC[C@H](C(=O)O)CC1)C[C@H]2NC(=O)[C@@]1(C)CCc2cc3c(cc21)OC(F)(F)O3 [Example 168]    127
COc1ccc2c(c1)O[C@@H](c1ccc(C(=O)NCC(O)CO)cn1)C[C@H]2NC(=O)[C@@]1(C)COc2cc3c(cc21)OC(F)(F)O3 (stereo partly shown) [Example 243]    112
COc1ccc2c(c1)O[C@@H](c1ccc(C(=O)N(C)CC(O)c3ccccc3)cn1)C[C@H]2NC(=O)[C@@]1(C)COc2cc3c(cc21)OC(F)(F)O3 (stereo partly shown) [Example 211]    124

P: COc1ccc2c(c1)O[C@@H](c1ccc(N3C[C@@H](O)[C@H](O)C3)nn1)C[C@H]2NC(=O)[C@@]1(C)COc2cc3c(cc21)OC(F)(F)O3 [Example 251]
Q: CC1(C(=O)Nc2ccc(N3CC(C(=O)O)C3)cc2)COc2cc3c(cc21)OC(F)(F)O3 (stereo not shown) [Example 61]
Query :: Larger number for Maximum % activity (%): P , or Q ? Which one? Tell me its label.
Result :: P
(P: 128%, Q: 8%)

a: CC1(C(=O)Nc2cccc(N3CCC(C(=O)O)CC3)n2)COc2cc3c(cc21)OC(F)(F)O3 (stereo not shown) [Example 71]
b: C[C@]1(C(=O)N[C@@H]2C[C@H](C3CCN(C[C@H](O)CO)CC3)Oc3cc(OC(F)(F)F)ccc32)COc2cc3c(cc21)OC(F)(F)O3 [Example 189]
Query :: Name the one with the greater Maximum % activity (%) value, either a or b as given. Your answer should be the label of the entry you select.
Result :: b
(b: 186%, a: 128%)
